Reference source: the RNAGym collection of RNA variant scans (doi:10.7554/elife.90254)

B1: OR4K15 (parent)
chain: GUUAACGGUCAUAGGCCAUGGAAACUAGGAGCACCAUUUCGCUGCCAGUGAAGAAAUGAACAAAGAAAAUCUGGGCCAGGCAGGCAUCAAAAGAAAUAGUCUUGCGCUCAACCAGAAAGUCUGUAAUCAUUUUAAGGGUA

Variants of: B1
MEASUREMENT_NOTES: self-cleavage, relative activity (ratio to wild type); higher = more cleavage; in vitro, sequencing; the parent is a self-cleaving ribozyme
RECORDED_METRIC: self-cleavage

Ask | // returns reported self-cleavage for input GUUAACGGGCAUAGGCCAUGGAAACUAGGAGCACCAUUUCGCUGCCAGUGAAGAAAUGAACAAAGAAAAUCUGGGCCAGGCAGGCAUCAAAAGAAAUAGUCUUGCGCUCAACCAGACAGUCUGUAAUCAUUUUAAGGGUA [U9G A117C]
Reply | 0.41

Ask | Reported self-cleavage for GUUAACGGUCAUAGGCCAUGGAAACUAGGAGCACCAUUUCGCUGCCAGUGAAGAAAUGAACAAAGAAAAUCUGGGCCAGGCAGGCAUCAAUAGAAAUAGUCUUGCGCUCAACCAGAAAGUCUGUAAUCAUUAUAAGGGUA [A91U U132A] : what is it?
Reply | 1.98

Ask | Entry GUUAACGGUCAUAGGCCAUGGAAACUAGGAGCACCAUUUCGCUGCCAGUGAAGAAAUGAACAAAGAAAAUCUGGGCCAGGCAGGCAUCAAAAGAAAUUGUCUUGCGCUCAACCAGAGAGUCUGUAAUCAUUUUAAGGGUA [A98U A117G] has what self-cleavage?
Reply | 1.63
